What inhibition at 0.1 µM was measured for each of the following?
experimental target: MMP-14 (Homo sapiens, UniProt P50281)
method description: MMP-14 enzyme inhibition assay (coumarin-labelled peptide substrate)
Format: biochemical
experimental setup: @ 0.1 μM; read-out: percentage inhibition MMP14
Give bare numbers, in %.

O=CN(O)C(CS(=O)(=O)N1CCc2ccc(-c3ccc(F)cc3)cc2C1)C1CC1 (stereo not drawn) : 11

Provide the reported inhibition at 0.1 µM of each entry below, same order.
1. CC(C)c1ccc2c(c1)CCN(S(=O)(=O)CC(C1CCCC1)N(O)C=O)C2 (stereo not drawn)
2. CC(C)(C)CC(CS(=O)(=O)N1CCc2ccc(Cl)cc2C1)N(O)C=O (stereo not drawn)

[out]
0
5
